Test system: CU-ACC2
Test: AC50 viability; higher = less potent
Conditions: 48 h
# strict inequality: AC50 viability < 10 µM yields class 1, everything else yields class 0

Some entries whose results are on file:
- compound: "O=C(Nc1ccc([N+](=O)[O-])cc1Cl)c1cc(Cl)ccc1O"
  label: "class 1"
- compound: "Cc1c(O)cccc1C(=O)NC(CSc1ccccc1)C(O)CN1CC2CCCCC2CC1C(=O)NC(C)(C)C (configuration not stated)"
  label: "class 0"
- compound: "O=C(Nc1ncc(SCCN2CCCC2)s1)[C@]1(c2ccc([S+](=O)([O-])C3CC3)cc2)C[C@H]1C1CCCCC1"
  label: "class 0"

Is 10 µM strictly greater than the compound's reported AC50 viability? compound: C=CCNC1=C2CC(C)CC(OC)C(O)C(C)/C=C(\C)C(OC(N)=O)C(OC)/C=C/C=C(\C)C(=O)NC(=CC1=O)C2=O (configuration not stated)
class 1

What about "O=c1[nH]c2ccccc2n1C1CCN(Cc2ccc(-c3nc4cc5nc[nH]c5cc4nc3-c3ccccc3)cc2)CC1" ?
class 0

What about "CCN(CC)C(=S)SSC(=S)N(CC)CC" ?
class 0

What about "Cc1cc(Nc2ncc3c(n2)N(C)C(=O)N(c2cc(NC(=O)c4cccc(C(F)(F)F)c4)ccc2C)C3)n(C)n1" ?
class 1

What about "NC1=C(Cl)C(=CC=N1)OC2=C(F)C=C(NC(=O)\C3=C\N\C=C(C3=O)\C4=CC=C(F)C=C4)C=C2" ?
class 0

What about "Cc1cc(OCCCc2c3n(c4c(-c5c(C)nn(C)c5C)c(Cl)ccc24)[C@H](C)CN(c2cn(C)c4ccc(C(=O)O)cc24)C3=O)cc(C)c1Cl" ?
class 0

What about "O=C1NC(=O)/C(=C/c2ccc3nccc(-c4ccncc4)c3c2)S1" ?
class 1

---

System: CU-ACC2
Test: AC50 viability; higher = less potent
Conditions: 48 h
Entries and their AC50 viability
Unit µM implied. Number only.

Any idea what AC50 viability was measured for "COc1cc(Nc2cnc(C#N)c(O[C@H](C)CN(C)C)n2)ncc1-c1cnn(C)c1" ?
10.5

What about COc1cccc2c1C(=O)c1c(O)c3c(c(O)c1C2=O)C[C@@](O)(C(=O)CO)CC3OC1CC(N2CCOC(OC)C2)C(O)C(C)O1 (stereo partly drawn) ?
0.059

What about "O=C(c1ccc(F)c(F)c1Nc1ccc(I)cc1F)N1CC(O)([C@@H]2CCCCN2)C1" ?
3.32

What about "CC(=O)O/N=C1/C(=C2\C(=O)Nc3cc(Br)ccc32)Nc2ccccc21" ?
9.34

What about CC(C)C(N)C(=O)OCC(CO)OC[N]1C=NC2=C1N\C(=N/C2=O)N (stereo not drawn) ?
5.25

---

System: CU-ACC1
Assay: area under concentration-response curve (viability) (AUC (a.u.)); higher = less active
Conditions: 48 h
value.kind: area under concentration-response curve
Number only, please.

Record excerpt, results attached:
- compound: "Cc1ncc(NC(=O)c2cccc(C(F)(F)F)c2)cc1-c1cnc(OC2CCOCC2)c(N2CCOCC2)c1"
  area under concentration-response curve: 541
- compound: "CCC/1=C/C2=C(C(=O)N1CC(=O)C3=CC=CC=C3)C(=C([N]2C)C(=O)NC4CCN(CC4)C(=O)CO)OCC(F)(F)F"
  area under concentration-response curve: 572
- compound: "O=C(O)C(=O)c1cn(Cc2ccccc2)c2ccc(-c3ccc(OC(F)(F)F)cc3)cc12"
  area under concentration-response curve: 474

Any idea what area under concentration-response curve was measured for "COc1cc2cc(c1Cl)N(C)C(=O)C[C@H](OC(=O)C(C)C)[C@]1(C)O[C@@H]1[C@H](C)[C@@H]1C[C@@](O)(NC(=O)O1)[C@H](OC)/C=C/C=C(\C)C2" ?
505

What about "FC(F)(F)c1ccc(Nc2nc3cc(Oc4ccnc(-c5ncc(C(F)(F)F)[nH]5)c4)ccc3[nH]2)cc1" ?
479

What about "CN1CCN(Cc2ccc(Nc3ncc(Cl)/c(=N\c4ccccc4[S+](=O)([O-])N(C)C)[nH]3)cc2)CC1" ?
437
